testedOn: KATP channels (Homo sapiens, UniProt O60706+Q14654)
Construct: TE671 human medulloblastoma cells were obtained from ATCC
Sequence (Q14654 whole entry): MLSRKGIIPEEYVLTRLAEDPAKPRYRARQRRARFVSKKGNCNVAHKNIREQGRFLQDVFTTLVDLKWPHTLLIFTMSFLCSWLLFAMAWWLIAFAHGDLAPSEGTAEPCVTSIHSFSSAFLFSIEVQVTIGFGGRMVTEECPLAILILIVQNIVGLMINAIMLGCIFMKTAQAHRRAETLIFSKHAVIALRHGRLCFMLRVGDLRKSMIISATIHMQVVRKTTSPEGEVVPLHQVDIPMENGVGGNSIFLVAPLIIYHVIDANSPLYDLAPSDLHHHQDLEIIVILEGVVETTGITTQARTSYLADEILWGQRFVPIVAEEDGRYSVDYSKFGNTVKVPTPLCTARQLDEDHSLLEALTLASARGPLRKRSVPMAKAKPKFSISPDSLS
Sequence (O60706 1-1549 isoform O60706-2): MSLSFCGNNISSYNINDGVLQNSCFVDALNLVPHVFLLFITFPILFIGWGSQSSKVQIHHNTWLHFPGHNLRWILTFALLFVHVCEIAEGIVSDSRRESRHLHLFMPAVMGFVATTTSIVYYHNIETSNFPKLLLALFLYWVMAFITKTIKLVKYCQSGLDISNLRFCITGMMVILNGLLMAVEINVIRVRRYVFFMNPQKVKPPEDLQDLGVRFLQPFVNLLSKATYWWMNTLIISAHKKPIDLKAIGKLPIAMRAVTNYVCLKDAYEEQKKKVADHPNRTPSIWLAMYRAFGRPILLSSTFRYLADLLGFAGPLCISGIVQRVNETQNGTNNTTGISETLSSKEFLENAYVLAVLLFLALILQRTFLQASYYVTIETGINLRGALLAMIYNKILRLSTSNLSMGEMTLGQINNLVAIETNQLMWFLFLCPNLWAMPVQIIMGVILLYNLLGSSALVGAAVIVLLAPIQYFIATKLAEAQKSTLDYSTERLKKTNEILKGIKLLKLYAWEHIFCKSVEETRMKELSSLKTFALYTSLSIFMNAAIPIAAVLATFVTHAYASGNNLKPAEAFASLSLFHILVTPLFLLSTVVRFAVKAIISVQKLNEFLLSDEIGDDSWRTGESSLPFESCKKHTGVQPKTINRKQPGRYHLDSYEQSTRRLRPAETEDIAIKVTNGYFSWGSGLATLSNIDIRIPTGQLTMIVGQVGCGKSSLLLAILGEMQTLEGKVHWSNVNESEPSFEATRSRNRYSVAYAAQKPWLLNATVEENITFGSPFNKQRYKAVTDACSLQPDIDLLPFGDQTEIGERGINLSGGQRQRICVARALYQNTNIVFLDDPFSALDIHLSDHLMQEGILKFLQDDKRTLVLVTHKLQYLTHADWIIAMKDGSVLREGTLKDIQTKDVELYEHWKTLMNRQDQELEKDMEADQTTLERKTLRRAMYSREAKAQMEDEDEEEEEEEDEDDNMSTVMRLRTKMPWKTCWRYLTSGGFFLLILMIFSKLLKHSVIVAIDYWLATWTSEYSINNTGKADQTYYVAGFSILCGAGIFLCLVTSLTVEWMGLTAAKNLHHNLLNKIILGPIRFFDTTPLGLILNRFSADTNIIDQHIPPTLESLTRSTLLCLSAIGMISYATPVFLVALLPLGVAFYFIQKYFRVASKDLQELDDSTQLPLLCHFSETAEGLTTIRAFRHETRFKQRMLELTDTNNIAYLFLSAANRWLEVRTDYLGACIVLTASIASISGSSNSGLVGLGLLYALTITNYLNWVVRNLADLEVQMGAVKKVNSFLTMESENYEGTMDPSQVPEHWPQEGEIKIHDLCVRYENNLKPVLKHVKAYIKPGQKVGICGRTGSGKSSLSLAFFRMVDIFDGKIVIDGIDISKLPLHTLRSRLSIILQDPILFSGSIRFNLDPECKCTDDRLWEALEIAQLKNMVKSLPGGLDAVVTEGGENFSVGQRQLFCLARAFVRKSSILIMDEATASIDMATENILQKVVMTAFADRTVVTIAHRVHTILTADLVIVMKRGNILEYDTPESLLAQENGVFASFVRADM
protocolNotes: Potassium Channel Assay (FLIPR membrane potential dye, TE671 cells)
runParameters: TE671 human medulloblastoma cells, room temperature, fluorescence change monitored for 3 minutes
pEC50: −log10 of the molar value.
assayReadout: pEC50

Known pEC50 results, listed for orientation:
N#Cc1cccc(C2OC(O)c3cnccc32)c1 (centres unmarked) [Compound 55] : < 4.52
CCOC(=O)c1cnc2cc(C(F)(F)F)ccc2c1-c1cccc(C(F)(F)F)c1 [Compound 10] : < 4.52
CCOC(=O)c1cnc2cc(C(F)(F)F)ccc2c1-c1cccc(C#N)c1 [Compound 1] : < 4.52
CCOC(=O)c1ccc(-c2c(C(=O)OCC)cnc3cc(C(F)(F)F)ccc23)cc1 [Compound 4] : < 4.52
OCc1cnccc1C(O)c1ccccc1 (centres unmarked) [Compound 56] : < 4.52

Attention now turns to another entry.
Query string: Give its pEC50 value. Item: CCOC(=O)c1cnc2cc(C(F)(F)F)ccc2c1-c1cccc(CO)c1 [Compound 12]
Result string: < 4.52

----------
testedOn: KATP channels (Homo sapiens, UniProt O60706+Q14654)
Construct: TE671 human medulloblastoma cells were obtained from ATCC
protocolNotes: Potassium Channel Assay (FLIPR membrane potential dye, TE671 cells)
runParameters: TE671 human medulloblastoma cells, room temperature, fluorescence change monitored for 3 minutes
pEC50: −log10 of the molar value.
Measured pEC50 of individual entries

N#Cc1cccc(-c2ccncc2C=O)c1 [Compound 51, 3-(3-Formyl-pyridin-4-yl)-benzonitrile] : < 4.52
N#Cc1cccc(-c2ccncc2CO)c1 [Compound 50] : < 4.52
OC1OC(c2ccccc2)c2ccncc21 (centres unmarked) [Compound 65] : < 4.52
COc1cccc(C(O)c2cnccc2-c2cccc(C#N)c2)c1 (centres unmarked) [Compound 29] : 4.86
N#Cc1cccc(C2OCc3cnccc32)c1 (centres unmarked) [Compound 66] : 5.09

Attention now turns to another entry.
Query string: Give its pEC50 value. Item: CCOC(=O)c1cnc2cc(C(F)(F)F)ccc2c1-c1cc(C)cc(OC)c1 [Compound 2]
Result string: < 4.52

----------
testedOn: KATP channels (Homo sapiens, UniProt O60706+Q14654)
Construct: TE671 human medulloblastoma cells were obtained from ATCC
protocolNotes: Potassium Channel Assay (FLIPR membrane potential dye, TE671 cells)
runParameters: TE671 human medulloblastoma cells, room temperature, fluorescence change monitored for 3 minutes
assayReadout: EC50 (µM)
Quick reminder: number only, in µM, skip the unit.

Known EC50 results, listed for orientation:
N#Cc1cccc(-c2ccncc2C(O)c2ccc(F)cc2)c1 (centres unmarked) : 19.4
CC(C)(C)c1ccc(C(O)c2cnccc2-c2cccc(C#N)c2)cc1 (centres unmarked) : 10.7
CN(C)c1ccc(C(O)c2cnccc2C(=O)c2ccccc2)cc1 (centres unmarked) : 17.4

Query string: Give its EC50 value. Item: Cc1ccccc1C(O)c1cnccc1-c1cccc(C#N)c1 (centres unmarked)
Result string: 15

Query string: Also Cc1ccc(C(O)c2cnccc2-c2cccc(C#N)c2)cc1F (centres unmarked) , if possible.
Result string: 15.1

Query string: Also COc1ccc(C(O)c2cnccc2C(=O)c2ccccc2)cc1F (centres unmarked) , if possible.
Result string: 11.6

Query string: Also CCOC(=O)c1cnc2cc(C(F)(F)F)ccc2c1-c1cc(C=O)ccc1OC , if possible.
Result string: 7.73

The values you see were collected from patent US7671065B2.
